assay: Hemolytic activity in human RBC at 8 times MIC relative to control; type: ADME, cell-based, Erythrocyte; conditions: human red blood cells (erythrocytes), read-out: Activity
EXPERIMENTAL_ENDPOINT: hemolysis at 8 x MIC (%)
Enter your answer as a number in %; do not include the unit.

Problem: Quick one: hemolysis at 8 x MIC of CCOC(=O)CN1CCN(c2ncnc3c2ncn3CC(=O)c2nccs2)CC1 ?
Result: 3.8

---

tested on: Candida albicans; assay: Antifungal activity against Candida albicans assessed as fungal growth inhibition by CLSI protocol based microbroth dilution method; type: functional
Simple rule here: MIC less than 30 µg/mL is 1.0, otherwise 0.0.

# COMPOUND, QUALITATIVE_LABEL
records = [
    ("CCOC(=O)CN1CCN(c2ncnc3c2ncn3CC(=O)c2nccs2)CC1", 1.0),
]

Problem: Threshold test, MIC < 30 µg/mL: O=C(Cn1cnc2c(N3CCOCC3)ncnc21)c1nccs1
Result: 0.0

Problem: Same again, this time with O=C(Cn1cnc2c(N3CCN(CC(=O)N4CCCC4)CC3)ncnc21)c1nccs1
Result: 1.0

Problem: Same again, this time with CCOC(=O)CN1CCN(c2ncnc3c2ncn3C/C(=N/OC)c2nccs2)CC1
Result: 1.0

Problem: Same again, this time with O=C(Cn1cnc2c(N3CCCCC3)ncnc21)c1nccs1
Result: 1.0

Problem: Same again, this time with CCCCCCCCN1CCN(c2ncnc3c2ncn3CC(=O)c2nccs2)CC1
Result: 1.0

Problem: Same again, this time with CCCCCCCCCCCCCCCCCCN1CCN(c2ncnc3c2ncn3CC(=O)c2nccs2)CC1
Result: 1.0

Problem: Same again, this time with O=C(Cn1cnc2c(N3CCN(Cc4ccccc4Cl)CC3)ncnc21)c1nccs1
Result: 0.0
